- TESTED TARGET: recombinant human α5β1 (Homo sapiens, UniProt P05556+P08648)
- Sequence (P08648 42-1049): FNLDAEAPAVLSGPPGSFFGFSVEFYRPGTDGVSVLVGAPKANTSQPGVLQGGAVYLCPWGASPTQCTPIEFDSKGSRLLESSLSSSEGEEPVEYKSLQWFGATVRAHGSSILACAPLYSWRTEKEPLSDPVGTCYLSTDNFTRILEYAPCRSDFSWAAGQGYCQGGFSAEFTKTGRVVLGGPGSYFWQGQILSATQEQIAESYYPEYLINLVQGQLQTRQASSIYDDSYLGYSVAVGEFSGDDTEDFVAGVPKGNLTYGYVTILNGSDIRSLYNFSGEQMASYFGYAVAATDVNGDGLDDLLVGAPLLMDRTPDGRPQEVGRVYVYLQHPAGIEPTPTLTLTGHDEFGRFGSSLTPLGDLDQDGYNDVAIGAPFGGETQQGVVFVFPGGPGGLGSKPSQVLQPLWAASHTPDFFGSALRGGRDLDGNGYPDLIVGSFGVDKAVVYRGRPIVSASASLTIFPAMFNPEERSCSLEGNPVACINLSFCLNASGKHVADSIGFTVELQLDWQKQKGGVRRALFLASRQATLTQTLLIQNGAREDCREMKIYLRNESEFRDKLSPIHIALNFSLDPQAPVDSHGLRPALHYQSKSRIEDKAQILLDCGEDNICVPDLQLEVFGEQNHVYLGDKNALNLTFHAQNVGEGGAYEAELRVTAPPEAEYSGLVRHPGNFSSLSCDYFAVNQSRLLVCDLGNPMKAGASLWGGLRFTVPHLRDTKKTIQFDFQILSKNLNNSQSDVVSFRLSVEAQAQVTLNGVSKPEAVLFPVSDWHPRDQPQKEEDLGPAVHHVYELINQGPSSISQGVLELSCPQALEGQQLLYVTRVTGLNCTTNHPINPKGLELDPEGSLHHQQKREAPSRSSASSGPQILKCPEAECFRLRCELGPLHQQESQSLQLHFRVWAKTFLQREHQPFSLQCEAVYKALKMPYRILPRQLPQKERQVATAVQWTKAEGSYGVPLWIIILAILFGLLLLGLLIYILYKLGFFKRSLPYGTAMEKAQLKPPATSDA
- Sequence (P05556 21-798): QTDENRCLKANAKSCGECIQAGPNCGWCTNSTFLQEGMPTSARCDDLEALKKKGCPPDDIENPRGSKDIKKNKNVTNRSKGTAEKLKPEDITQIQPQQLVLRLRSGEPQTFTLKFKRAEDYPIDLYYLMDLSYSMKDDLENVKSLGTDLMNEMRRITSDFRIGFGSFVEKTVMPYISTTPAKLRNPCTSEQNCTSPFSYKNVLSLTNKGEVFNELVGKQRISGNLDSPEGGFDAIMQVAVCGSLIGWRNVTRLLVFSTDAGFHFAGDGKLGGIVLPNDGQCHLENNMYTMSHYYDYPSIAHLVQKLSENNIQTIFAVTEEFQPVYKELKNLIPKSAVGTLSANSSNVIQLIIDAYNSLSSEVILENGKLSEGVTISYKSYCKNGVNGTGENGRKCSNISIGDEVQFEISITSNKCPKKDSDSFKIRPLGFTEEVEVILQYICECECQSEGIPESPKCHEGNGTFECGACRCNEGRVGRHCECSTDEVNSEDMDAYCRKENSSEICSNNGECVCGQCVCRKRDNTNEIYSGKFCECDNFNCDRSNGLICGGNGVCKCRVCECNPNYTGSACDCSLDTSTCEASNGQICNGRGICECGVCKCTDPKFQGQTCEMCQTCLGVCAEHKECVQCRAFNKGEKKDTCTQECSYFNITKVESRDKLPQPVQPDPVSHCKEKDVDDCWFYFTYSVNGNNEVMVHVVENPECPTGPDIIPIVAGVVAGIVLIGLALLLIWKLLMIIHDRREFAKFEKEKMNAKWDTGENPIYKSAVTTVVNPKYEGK
- PROTOCOL DESCRIPTION: In vitro binding assay (a): inhibition of binding of α5β1 integrin to a fragment of human fibronectin (Fn9-10), Origen electrochemiluminescence
- CONDITION DETAILS: geometric mean of the measured IC50 values; n = number of tests
pIC50: −log10 of the molar value.
PROPERTY LABEL: pIC50

(P) O=C(N[C@@H](Cc1ccc(OCCc2ccc3c(n2)NCCC3)cc1)C(=O)O)c1c(Cl)cccc1Cl
(Q) CNc1cccc(CCCc2ccc(C[C@H](NC(=O)c3c(Cl)cccc3Cl)C(=O)O)s2)n1
(Q) Which record shows the lower pIC50: the first, P , or the second, Q ? Choose, then provide that item's label.
(A) Q
